# Test system: Wolbachia pipientis
# EXPERIMENT SUMMARY: Anti-Wolbachia Cell-Based Screen
# Assay type: functional
# Design: scale not given: in the data most compounds retested in dose-response had high values
# PROTOCOL CONDITIONS: 5 µM
About 13,000 (27%) of roughly 48,000 compounds showed an effect of 50% or more. The list shows a part of the results.
In this section, each of the molecules is paired with its reported Percent Effect.
Write the answer as a number in %, unit excluded.

Before answering, review these 5 worked examples.
{"MOLECULE": "CCN1CCN(C2(C(=O)NC3CCCC3)Cc3ccccc3C2)CC1", "OUTPUT UNIT": "%", "Percent Effect": 34.09}
{"MOLECULE": "COCCn1ccnc1C1CCN(C(=O)C(O)c2ccc(F)cc2)CC1 (stereo unspecified)", "OUTPUT UNIT": "%", "Percent Effect": -18.13}
{"MOLECULE": "COCC(=O)N1CC[C@@H]2O[C@H](COCc3csc(C)n3)CC[C@@H]21", "OUTPUT UNIT": "%", "Percent Effect": 4.421}
{"MOLECULE": "COCc1csc(NC(=O)NCc2ccccn2)n1", "OUTPUT UNIT": "%", "Percent Effect": 11.42}
{"MOLECULE": "COCCn1c(=O)n(C)c(=O)c2ccc(C3CCC(CN)CC3)nc21.Cl (stereo unspecified)", "OUTPUT UNIT": "%", "Percent Effect": 114.4}

Param item: CCOc1ccc(C(=O)N2CCCC2c2c(C)nn(C)c2OC)cn1 (stereo unspecified) ; param system: Wolbachia pipientis; output Percent Effect: 122.4

Param item: CC(c1nc(C2CC2)no1)N1CCN(Cc2noc(C3CC3)n2)CC1 (stereo unspecified) ; param system: Wolbachia pipientis; output Percent Effect: 103.7

Param item: O=C1NCCCC[C@@H]1NC(=O)C1(N2CCCCC2)Cc2ccccc2C1 ; param system: Wolbachia pipientis; output Percent Effect: 94.83

Param item: CC(C)c1nc(CN2CCN(C(C)c3nc(C4CC4)no3)CC2)no1 (stereo unspecified) ; param system: Wolbachia pipientis; output Percent Effect: 0.3475

Param item: COc1c(C2CCCN2C(=O)c2ccc3[nH]cnc3c2)c(C)nn1C (stereo unspecified) ; param system: Wolbachia pipientis; output Percent Effect: 128.2

Param item: COCCn1c(=O)n(C)c(=O)c2ccc(C3CCN(C(C)=O)CC3)nc21 ; param system: Wolbachia pipientis; output Percent Effect: 55.11

Param item: O=C(CC(F)(F)F)NC(c1ccc(Cl)cc1)c1ncon1 (stereo unspecified) ; param system: Wolbachia pipientis; output Percent Effect: 11.91

Param item: COCCC1(CO)CCCN(C(=O)c2cc(C#N)c(=O)[nH]c2C)C1 (stereo unspecified) ; param system: Wolbachia pipientis; output Percent Effect: 6.218

Param item: CN(C)c1nc2c(c(=O)[nH]1)CCN(C(=O)c1c[nH]c(=O)c(Cl)c1)C2 ; param system: Wolbachia pipientis; output Percent Effect: 24.13

Param item: Cn1ccc(C(=O)Nc2nnc(-c3ccccn3)[nH]2)cc1=O ; param system: Wolbachia pipientis; output Percent Effect: -6.589

Param item: O=C1NCCCCC1NC(=O)N1CCCc2ccccc21 (stereo unspecified) ; param system: Wolbachia pipientis; output Percent Effect: 0.9845

Param item: COc1c(C2CCCN2C(=O)c2sccc2C#N)c(C)nn1C (stereo unspecified) ; param system: Wolbachia pipientis; output Percent Effect: -24.73

Param item: COc1cccc2c(=O)n(Cc3cc(C4CC4)[nH]n3)cnc12 ; param system: Wolbachia pipientis; output Percent Effect: 104.8
